target: c-Src SH2; assay: SH2 binding enrichment of the phosphorylated peptide, bacterial display (enrichment ratio); higher = better substrate or ligand; peptides without Tyr show the background;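 also: peptide library displayed on the E. coli surface as eCPX fusions, selected cells deep-sequenced, score is each peptide's frequency after selection divided by its frequency in the input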
// values below are reported SH2 binding enrichment
Lab note: write the figure by itself, no unit.

item-sequence: TNIKRYHIAKV [HARS1_Y150]
value-measured: 0.81

Write down SH2 binding enrichment measured for item TIQMMYGCDVG [HLA-A_Y123_I121M]
0.414

---

system: c-Src; experiment: phosphorylation enrichment, bacterial display (enrichment ratio); higher = better substrate or ligand; peptides without Tyr show the background
// values below are reported phosphorylation enrichment
Lab note: write the figure by itself, no unit.

item-sequence: RNIQQHNSFVS [PRKAR1A_Y373_Y373H]
assay-system: c-Src
phosphorylation enrichment: 0.367
--
item-sequence: CTTIHYNFICN [TP53_Y234_M237I_YF]
assay-system: c-Src
phosphorylation enrichment: 0.595

Could you now look at the following sequence, please?
Write down phosphorylation enrichment measured for item DNEYAYLKAII [HNF4A_Y288]
0.599
